In this section we review reported pKd values for a set of binders.
testedSystem: DLG4_1, P78352
Sequence (P78352 62-152): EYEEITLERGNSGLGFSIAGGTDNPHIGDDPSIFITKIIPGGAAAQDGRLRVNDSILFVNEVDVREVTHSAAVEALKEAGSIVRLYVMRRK
testSummary: holdup assay
Design: key: below the threshold = too weak to quantify, mostly under pKd 3.1 to 4
particulars: plain residues with an end cap or a label only (N-terminal biotin on a linker: ttds)
reportedMetric: pKd

>>> observedvalue("QSARYRDTEL [TJP2, Q9UDY2]")
3.52
>>> observedvalue("PKTPPTDTSV [KIR3DL3, Q8N743]")
4.04
>>> observedvalue("SVWLRKETRV [CYSLTR2, Q9NS75]")
4.92
